- assay.overview: In vitro stability in rat plasma
- Assay type: in vitro ADME
- experimental.conditions: male, pH 7.4, 37° C., read-out: T1/2 (minutes) Rat
value.type: half-life at 5 μM (min)

>>> assay_result("O=S(=O)(Cc1noc2ccccc12)NO")
18
>>> assay_result("O=S(=O)(Cc1cccc(Cl)c1)NO")
40
>>> assay_result("O=S(=O)(Cc1cc(Cl)ccc1Cl)NO")
12

----------
- assay.overview: In vitro stability in dog plasma
- Assay type: in vitro ADME
- experimental.conditions: male, pH 7.4, 37° C., read-out: T1/2 (minutes) Dog
Hi! Could you tag entries with half-life at 5 μM below 40 min as Y, and those at or above as N? Much appreciated.

>>> assigned_class("O=S(=O)(Cc1ccc(Cl)cc1Cl)NO")
"N"
>>> assigned_class("O=S(=O)(Cc1cccc(C(F)(F)F)c1)NO")
"Y"
>>> assigned_class("O=S(=O)(Cc1cccc(F)c1)NO")
"N"
>>> assigned_class("O=S(=O)(Cc1cc(F)cc(F)c1)NO")
"Y"
>>> assigned_class("O=S(=O)(Cc1ccc(Br)cc1)NO")
"N"
>>> assigned_class("O=S(=O)(Cc1ccc(Cl)c(Cl)c1)NO")
"N"
>>> assigned_class("O=S(=O)(Cc1cccc(Br)c1)NO")
"N"
>>> assigned_class("O=S(=O)(Cc1ccc(Cl)cc1)NO")
"N"
>>> assigned_class("O=S(=O)(Cc1ccc(F)cc1)NO")
"Y"
>>> assigned_class("O=S(=O)(Cc1ccc(F)cc1F)NO")
"N"
>>> assigned_class("O=S(=O)(Cc1cc(F)ccc1F)NO")
"Y"
>>> assigned_class("O=S(=O)(Cc1ccccc1Cl)NO")
"Y"
>>> assigned_class("O=S(=O)(Cc1ccc(C(F)(F)F)cc1)NO")
"N"
>>> assigned_class("Cc1cccc(CS(=O)(=O)NO)c1")
"N"
>>> assigned_class("O=S(=O)(Cc1cccc(Cl)c1)NO")
"N"
>>> assigned_class("O=S(=O)(Cc1ccccc1C(F)(F)F)NO")
"Y"
>>> assigned_class("O=[N+]([O-])c1ccccc1CS(=O)(=O)NO")
"Y"
>>> assigned_class("O=S(=O)(Cc1noc2ccccc12)NO")
"Y"
>>> assigned_class("O=S(=O)(Cc1cc(Cl)ccc1Cl)NO")
"Y"
>>> assigned_class("O=S(=O)(Cc1ccccc1F)NO")
"Y"

----------
- assay.overview: In vitro stability in human plasma
- Assay type: in vitro ADME
- experimental.conditions: male, pH 7.4, 37° C., read-out: T1/2 (minutes) Human
// classify: if (half-life at 5 μM < 30 min) Satisfied else Not satisfied

>>> assigned_class("O=S(=O)(Cc1ccc(Cl)cc1)NO [Compound 2]")
"Not satisfied"
>>> assigned_class("O=S(=O)(Cc1ccc(F)cc1F)NO [Compound 8]")
"Not satisfied"
>>> assigned_class("O=S(=O)(Cc1cccc(Cl)c1)NO [Compound 3]")
"Not satisfied"
>>> assigned_class("Cc1cccc(CS(=O)(=O)NO)c1 [Compound 5]")
"Not satisfied"
>>> assigned_class("O=S(=O)(Cc1noc2ccccc12)NO [Compound 22]")
"Satisfied"
>>> assigned_class("O=S(=O)(Cc1ccccc1Cl)NO [Compound 4]")
"Satisfied"
>>> assigned_class("O=S(=O)(Cc1ccc(C(F)(F)F)cc1)NO [Compound 18]")
"Not satisfied"
>>> assigned_class("O=S(=O)(Cc1ccc(Cl)c(Cl)c1)NO [Compound 12]")
"Not satisfied"
>>> assigned_class("O=S(=O)(Cc1cc(Cl)ccc1Cl)NO [Compound 10]")
"Satisfied"

----------
melting point values by entry
value.type: melting point (°C)

>>> assay_result("O=S(=O)(Cc1ccccc1C(F)(F)F)NO [Compound 7]")
123
>>> assay_result("CC(c1ccc(Cl)cc1)S(=O)(=O)NO (stereo not shown) [Compound 27]")
129
>>> assay_result("O=S(=O)(Cc1ccc(Cl)cc1)NO [Compound 2]")
144
>>> assay_result("O=S(=O)(Cc1ccc(Br)cc1)NO [Compound 16]")
160
>>> assay_result("O=S(=O)(Cc1cc(F)ccc1F)NO [Compound 9]")
125
>>> assay_result("O=S(=O)(Cc1ccc(F)cc1)NO [Compound 6]")
158
>>> assay_result("O=S(=O)(NO)C1(c2ccc(Cl)cc2)CC1 [Compound 29]")
138
>>> assay_result("O=S(=O)(Cc1ccccc1Cl)NO [Compound 4]")
124
>>> assay_result("O=S(=O)(Cc1ccc(C(F)(F)F)cc1)NO [Compound 18]")
156
>>> assay_result("O=S(=O)(Cc1noc2ccccc12)NO [Compound 22]")
143
>>> assay_result("O=S(=O)(Cc1cccc(Cl)c1)NO [Compound 3]")
150
>>> assay_result("O=S(=O)(Cc1ccccc1F)NO [Compound 14]")
118
>>> assay_result("O=S(=O)(Cc1c(Cl)cccc1Cl)NO [Compound 21]")
140
>>> assay_result("O=S(=O)(Cc1cc(F)cc(F)c1)NO [Compound 20]")
136
>>> assay_result("O=S(=O)(Cc1ccc(Cl)cc1Cl)NO [Compound 11]")
158
>>> assay_result("O=S(=O)(Cc1cccc(F)c1)NO [Compound 13]")
109
>>> assay_result("O=S(=O)(Cc1cc(Cl)ccc1Cl)NO [Compound 10]")
158
>>> assay_result("O=S(=O)(Cc1ccc(F)cc1F)NO [Compound 8]")
166
>>> assay_result("O=[N+]([O-])c1ccccc1CS(=O)(=O)NO [Compound 1]")
163
>>> assay_result("O=S(=O)(Cc1cccc(Br)c1)NO [Compound 15]")
161
>>> assay_result("O=S(=O)(Cc1ccc2oncc2c1)NO [Compound 26]")
117
>>> assay_result("Cc1cccc(CS(=O)(=O)NO)c1 [Compound 5]")
98
>>> assay_result("O=S(=O)(Cc1c(F)cccc1Cl)NO [Compound 19]")
127
>>> assay_result("O=S(=O)(Cc1cccc(C(F)(F)F)c1)NO [Compound 17]")
132
>>> assay_result("O=S(=O)(Cc1ccc(Cl)c(Cl)c1)NO [Compound 12]")
175
